procedure.text: The drug is tested on Lactobacillus gasseri strain: DSM20243 for biotransformation under microaerobic condition. The drug concentrations were measured over 6 timepoints collected between 0 and 12 hours of incubation by liquid-chromatography-coupled mass spectrometry (LC–MS)
Format: ADME
Design: dose 5 uM, timepoint 0, 1.5, 3, 6, 9, 12 hours
particulars: 5 µM
measurement.type: Bacterial Biotransformation

Give Bacterial Biotransformation for the following compound: C[C@H]1C[C@H]2[C@@H]3CCC4=CC(=O)C=C[C@]4(C)[C@@]3(F)[C@@H](O)C[C@]2(C)[C@@]1(O)C(=O)CO Compound NOT metabolized

Give Bacterial Biotransformation for the following compound: CNC(=C[N+](=O)[O-])NCCSCc1ccc(CN(C)C)o1 Compound NOT metabolized

Give Bacterial Biotransformation for the following compound: CO[C@H]1C[C@@H]2CC[C@@H](C)[C@@](O)(O2)C(=O)C(=O)N2CCCC[C@H]2C(=O)O[C@H]([C@H](C)C[C@@H]2CC[C@@H](O)[C@H](OC)C2)CC(=O)[C@H](C)/C=C(\C)[C@@H](O)[C@@H](OC)C(=O)[C@H](C)C[C@H](C)/C=C/C=C/C=C/1C Compound NOT metabolized

###

procedure.text: The drug is tested on Clostridium bolteae strain: DSM15670 for biotransformation under anaerobic condition. The drug concentrations were measured over 6 timepoints collected between 0 and 12 hours of incubation by liquid-chromatography-coupled mass spectrometry (LC–MS)
Assay type: ADME
Design: dose 5 uM, timepoint 0, 1.5, 3, 6, 9, 12 hours
particulars: enterocloster bolteae, 5 µM
measurement.type: Bacterial Biotransformation

Before answering, review these 4 worked examples.
Give Bacterial Biotransformation for the following molecule: CC(C)NCC(O)COc1ccc(CC(N)=O)cc1 (centres undefined) Compound NOT metabolized

Give Bacterial Biotransformation for the following molecule: CNC(=C[N+](=O)[O-])NCCSCc1ccc(CN(C)C)o1 Compound NOT metabolized

Give Bacterial Biotransformation for the following molecule: CN(Cc1cnc2nc(N)nc(N)c2n1)c1ccc(C(=O)N[C@@H](CCC(=O)O)C(=O)O)cc1 [METHOTREXATE] Compound NOT metabolized

Give Bacterial Biotransformation for the following molecule: CO[C@H]1C[C@@H]2CC[C@@H](C)[C@@](O)(O2)C(=O)C(=O)N2CCCC[C@H]2C(=O)O[C@H]([C@H](C)C[C@@H]2CC[C@@H](OCCO)[C@H](OC)C2)CC(=O)[C@H](C)/C=C(\C)[C@@H](O)[C@@H](OC)C(=O)[C@H](C)C[C@H](C)/C=C/C=C/C=C/1C Compound metabolized

Continuing:
Give Bacterial Biotransformation for the following molecule: C[C@H]1C[C@@H]2[C@H]([C@@H](O)C[C@@]3(C)[C@H]2CC[C@]3(O)C(=O)CO)[C@@]2(C)C=CC(=O)C=C12 Compound NOT metabolized

Give Bacterial Biotransformation for the following molecule: C[C@]12CCC(=O)C=C1CC[C@@H]1[C@@H]2[C@@H](O)C[C@@]2(C)[C@H]1CC[C@]2(O)C(=O)CO [HYDROCORTISONE] Compound metabolized

Give Bacterial Biotransformation for the following molecule: C=CC[C@@H]1/C=C(\C)C[C@H](C)C[C@H](OC)[C@H]2O[C@@](O)(C(=O)C(=O)N3CCCC[C@H]3C(=O)O[C@H](/C(C)=C/[C@@H]3CC[C@@H](O)[C@H](OC)C3)[C@H](C)[C@@H](O)CC1=O)[C@H](C)C[C@@H]2OC.O Compound NOT metabolized

Give Bacterial Biotransformation for the following molecule: C[C@H]1C[C@H]2[C@@H]3CCC4=CC(=O)C=C[C@]4(C)[C@@]3(F)[C@@H](O)C[C@]2(C)[C@@]1(O)C(=O)CO Compound NOT metabolized

Give Bacterial Biotransformation for the following molecule: C[C@@H]1C[C@H]2[C@@H]3CCC4=CC(=O)C=C[C@]4(C)[C@@]3(F)[C@@H](O)C[C@]2(C)[C@@]1(O)C(=O)CO Compound NOT metabolized

The origin of these recorded values is ChEMBL document CHEMBL5724806.
